Target: Muscarinic acetylcholine receptor M2 (Rattus norvegicus, UniProt P10980)
Sequence (P10980 whole entry): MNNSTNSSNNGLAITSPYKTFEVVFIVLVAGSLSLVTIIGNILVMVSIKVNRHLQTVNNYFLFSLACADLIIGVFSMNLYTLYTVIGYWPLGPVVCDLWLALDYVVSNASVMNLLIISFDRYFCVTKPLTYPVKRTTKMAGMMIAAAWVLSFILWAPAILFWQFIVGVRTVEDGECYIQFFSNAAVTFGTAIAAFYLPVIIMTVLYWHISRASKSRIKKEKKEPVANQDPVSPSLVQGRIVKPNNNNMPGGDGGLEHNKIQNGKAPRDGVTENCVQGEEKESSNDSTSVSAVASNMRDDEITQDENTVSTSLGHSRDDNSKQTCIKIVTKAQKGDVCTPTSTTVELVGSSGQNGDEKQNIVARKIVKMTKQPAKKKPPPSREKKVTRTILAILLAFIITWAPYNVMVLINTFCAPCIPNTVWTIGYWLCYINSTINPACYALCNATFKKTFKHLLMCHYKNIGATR
measure name: Ki (nM)

| compound | assay system | reported measurement |
| --- | --- | --- |
| C(#Cc1cccc(C#CCOc2nsnc2C2CN3CCC2CC3)c1)COc1nsnc1C1CN2CCC1CC2 (stereo unspecified) | Muscarinic acetylcholine receptor M2 (Rattus norvegicus, UniProt P10980) | 9.55 |
